Hey, just so you know, these numbers are from ChEMBL document CHEMBL1201862.

tested on: LXFL 529; assay: NCI tumour cell line growth inhibition, 48 h
Calls of active or inactive are those of the source. No stated cut-off is given here; in the data, active = GI50 up to about 1.1 µM and inactive = higher.
Give one outcome, nothing more. List: active, inactive

Example entries and their recorded answers appear below.
>>> labelvalue("CCOC(=O)/C(C#N)=C/c1[nH]c(C(=O)OCc2ccccc2)c(C)c1C")
"inactive"
>>> labelvalue("COc1cc2c(c(OC)c1OC)-c1ccc(SC)c(=O)cc1C(NC(=O)c1ccccc1)CC2 (stereo unspecified)")
"active"
>>> labelvalue("CC(=O)O[C@H]1C(=O)[C@@]2(C)[C@H]([C@H](OC(=O)c3ccccc3)[C@]3(O)C[C@H](OC(=O)[C@H](O)[C@@H](NC(=O)c4ccccc4)c4ccccc4)C(C)=C1C3(C)C)[C@]1(OC(C)=O)CO[C@@H]1C[C@@H]2O")
"active"
>>> labelvalue("COc1ccc(C2C(C)C(=O)C(C)C(c3ccc(OC)cc3)N2N=O)cc1 (stereo unspecified)")
"inactive"

What was the test verdict on C=CCNC(=S)N1CC(C)C(=O)Nc2cc(Cl)ccc21 (stereo unspecified) ?
inactive

Just curious, what result did Nc1ncc(CN2CCCC2)c(-c2ccccc2O)n1 get here?
inactive

Outcome? O=c1/c(=C/c2cccc3ccccc23)sc2nc3ccccc3n12
inactive

What was the test verdict on O=[N+]([O-])c1nccn1COCCBr ?
inactive

# lookup: test call for C=C1C(=O)OC2/C=C(\CO)C3OC3C3OC3(C)CC(OC(=O)/C(=C/C)COC(C)=O)C12 (stereo unspecified)
active

Record request — test call for Cc1ccc(Nc2ccc(Nc3ccc(C)cc3S(=O)(=O)O)c3c2C(=O)c2ccccc2C3=O)c(S(=O)(=O)O)c1
inactive

Recorded test call requested for CCOc1ccccc1/N=C(/NC(=O)CC)SC
inactive

----------
tested on: 786-0; assay: NCI tumour cell line growth inhibition, 48 h
Active and inactive are the calls of the source. Cut-off read from the data, not from the text of the source: active = GI50 up to about 1.1 µM and inactive = higher.
# output must be one of active, inactive

Look up the recorded call for CC(=O)OCCCCn1cc(Cn2ccc(=O)n(Cc3cn(CCCCOC(C)=O)nn3)c2=O)nn1 in this test.
inactive

----------
tested on: U-251; test: NCI tumour cell line growth inhibition, 48 h
Activity calls are given as the source filed them. No stated cut-off is given here; in the data, active = GI50 up to about 1.1 µM and inactive = higher.
Write down the outcome that applies. Available outcomes: 1 (yes) = active, 0 (no) = inactive

Solved cases (2 shown):
>>> labelvalue("O=C1CCCCC[C@]12SC[C@H]1CON=C12")
"0 (no)"
>>> labelvalue("C=C1c2ccccc2C(=O)c2c1c1c(C(=O)OC)c(O)ccc1n2Cc1ccccc1")
"1 (yes)"

// switching to the query compound
Per the assay record, what outcome was assigned to c1ccc(/N=C2\S/C(=N\C3CCCCC3)N(C3CCCCC3)\C2=N/c2ccccc2)cc1 ?
0 (no)

----------
system: DU-145; assay: NCI tumour cell line growth inhibition, 48 h
Activity calls are given as the source filed them. No stated cut-off is given here; in the data, active = GI50 up to about 1.1 µM and inactive = higher. Where a SMILES comes first, the peptide text is derived from it. The star is where a group is joined. ONb = O=[N+]([O-])c1ccc(CO*)cc1; Boc = CC(C)(C)OC(=O)*
Reported GI50 by item:

>>> result("O=P(Nc1ccccc1)(Oc1ccccc1)N1CCN(c2ccccc2)CC1 (centres undefined)")
"19.6 µM (inactive)"
>>> result("CC(C)CC(NC(=O)OC(C)(C)C)C(=O)NC(CCC(=O)OCc1ccc([N+](=O)[O-])cc1)C(=O)OCc1ccc([N+](=O)[O-])cc1 (stereo not drawn) (Boc-Leu-Glu(ONb)-ONb; configuration not given here)")
"13.5 µM (inactive)"
>>> result("COC(=O)[C@@H]1O[C@]12C(CO[Si](C)(C)C(C)(C)C)OC(n1ccc(=O)[nH]c1=O)C2O[Si](C)(C)C(C)(C)C (some centres undefined)")
"25.2 µM (inactive)"

Below: the item to evaluate.
Provide measured GI50 value, entry: O=C1NCN(c2ccccc2)C12CCN(CCCN1CCN(CCOC(c3ccc(F)cc3)c3ccc(F)cc3)CC1)CC2
1.73 µM (inactive)
